molecular target: h-11βHSD1 (Homo sapiens)
Sequence (P28845 whole entry): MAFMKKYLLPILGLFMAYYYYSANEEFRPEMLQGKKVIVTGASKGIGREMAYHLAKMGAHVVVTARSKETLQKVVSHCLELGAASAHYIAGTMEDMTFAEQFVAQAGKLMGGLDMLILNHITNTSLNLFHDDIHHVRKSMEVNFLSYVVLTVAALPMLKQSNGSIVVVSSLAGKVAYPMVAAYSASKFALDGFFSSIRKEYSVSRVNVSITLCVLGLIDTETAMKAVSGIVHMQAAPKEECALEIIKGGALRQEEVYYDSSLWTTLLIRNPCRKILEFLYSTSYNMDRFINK
measured property: IC50 (nM)
Could you give me the number in nM? Just the number is fine.

INPUT: Give IC50 (h-11βHSD1 (Homo sapiens)) of the following molecule: `CN(C(=O)CCCOc1ccc2c(c1)OCO2)C1CCCCC1`
OUTPUT: 560

Origin of measurements: patent US20060111366A1
